measured_on: galectin-3C (carbohydrate recognition domain of galectin-3) (Homo sapiens, UniProt P17931)
Construct: gene LGALS3; carbohydrate recognition domain of galectin-3 (residues 113–250)
Sequence (P17931 113-250): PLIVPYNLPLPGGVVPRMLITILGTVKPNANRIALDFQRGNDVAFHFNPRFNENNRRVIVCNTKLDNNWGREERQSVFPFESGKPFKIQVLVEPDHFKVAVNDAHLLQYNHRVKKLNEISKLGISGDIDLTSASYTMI
protocol_details: ITC; X-ray crystal structure; NMR titration
Format: binding
condition_notes: read-out: Kd ITC (10^-6 M) ^a
Items are presented alongside their recorded Kd.
Note: unit nM is implicit; provide only the numeric part.

OC[C@H]1O[C@@H](S[C@@H]2O[C@H](CO)[C@@H](O)[C@H](O)[C@H]2O)[C@H](O)[C@@H](n2cc(-c3ccc(F)cc3)nn2)[C@H]1O; 2460

Let us examine a further case.
## Input # get_value(readout= Kd, system= galectin-3C (carbohydrate recognition domain of galectin-3) (Homo sapiens, UniProt P17931)) for OC[C@H]1O[C@@H](S[C@@H]2O[C@H](CO)[C@@H](O)[C@H](O)[C@H]2O)[C@H](O)[C@@H](n2cc(-c3cccc(F)c3)nn2)[C@H]1O
## Output 2000

---

measured_on: galectin-3C (carbohydrate recognition domain of galectin-3) (Homo sapiens)
Construct: gene LGALS3; carbohydrate recognition domain of galectin-3 (residues 113–250)
protocol_details: ITC; X-ray crystal structure; NMR titration
Assay type: binding
observable: pKd
Expect pKd as a plain number equal to -log10 of the molar concentration.

## Input # get_value(readout= pKd, system= galectin-3C (carbohydrate recognition domain of galectin-3) (Homo sapiens)) for OC[C@H]1O[C@@H](S[C@@H]2O[C@H](CO)[C@@H](O)[C@H](O)[C@H]2O)[C@H](O)[C@@H](n2cc(-c3ccccc3F)nn2)[C@H]1O
## Output 5.14

Entry source: paper PMC8395690
